Form field: IC50 (one value per entry).
measured_target: pp72^syk (1-265) (Homo sapiens, UniProt P43405)
Square brackets hold non-standard residues; d marks the D form. Peptide text beside a SMILES is read from it. * marks the point of attachment. Tyr(3,5-(NO2)2) = N[C@@H](Cc1cc([N+](=O)[O-])c(O)c([N+](=O)[O-])c1)C(=O)O; 2Nal = N[C@@H](Cc1ccc2ccccc2c1)C(=O)O; PhAc = O=C(Cc1ccccc1)*

[[record]]
compound = "CC(=O)N[C@@H](Cc1ccccc1)C(=O)N[C@@H](Cc1cc([N+](=O)[O-])c(O)c([N+](=O)[O-])c1)C(=O)N[C@@H](CCC(=O)O)C(=O)N[C@H](C(=O)N[C@@H](CC(C)C)C(N)=O)[C@@H](C)O (Ac-F[Tyr(3,5-(NO2)2)]ETL-NH2)"
reported_measurement = "> 100 µM"


Documented IC50 of CC(=O)N[C@@H](Cc1ccc2ccccc2c1)C(=O)N[C@@H](Cc1cc([N+](=O)[O-])c(O)c([N+](=O)[O-])c1)C(=O)N[C@@H](CCC(=O)O)C(=O)N[C@H](C(=O)N[C@@H](CC(C)C)C(N)=O)[C@@H](C)O (Ac-[2Nal][Tyr(3,5-(NO2)2)]ETL-NH2) : > 100 µM

In plain terms, CC(C)C[C@H](NC(=O)[C@@H](NC(=O)[C@H](CCC(=O)O)NC(=O)[C@H](Cc1cc([N+](=O)[O-])c(O)c([N+](=O)[O-])c1)NC(=O)Cc1ccccc1)[C@@H](C)O)C(N)=O (PhAc-[Tyr(3,5-(NO2)2)]ETL-NH2) has a documented IC50 of > 1000 µM
